Measured MIC by item
tested on: Leuconostoc pseudomesenteroides; assay: MIC, agar dilution on brain-heart infusion agar; type: cell-based
endpointLabel: MIC (µg/mL)

INSERT INTO assay_data (molecule, number) VALUES
  ('CNC(CC(C)C)C(=O)NC1C(=O)NC(CC(N)=O)C(=O)NC2C(=O)NC3C(=O)NC(C(=O)NC(C(=O)O)c4cc(O)cc(O)c4-c4cc3ccc4O)C(OC3CC(C)(N)C(O)C(C)O3)c3ccc(c(Cl)c3)Oc3cc2cc(c3OC2OC(CO)C(O)C(O)C2OC2CC(C)(NCc3ccc(C=Cc4ccccc4)cc3)C(O)C(C)O2)Oc2ccc(cc2Cl)C1O (stereo not drawn)', 16),
  ('CNC(CC(C)C)C(=O)NC1C(=O)NC(CC(N)=O)C(=O)NC2C(=O)NC3C(=O)NC(C(=O)NC(C(=O)O)c4cc(O)cc(O)c4-c4cc3ccc4O)C(OC3CC(C)(N)C(O)C(C)O3)c3ccc(c(Cl)c3)Oc3cc2cc(c3OC2OC(CO)C(O)C(O)C2OC2CC(C)(NCc3ccc(-c4ccc(-c5ccccc5)cc4)cc3)C(O)C(C)O2)Oc2ccc(cc2Cl)C1O (stereo not drawn) [Compound 36, 4-[4-biphenyl]benzyl]', 32),
  ('CNC(CC(C)C)C(=O)NC1C(=O)NC(CC(N)=O)C(=O)NC2C(=O)NC3C(=O)NC(C(=O)NC(C(=O)O)c4cc(O)cc(O)c4-c4cc3ccc4O)C(OC3CC(C)(N)C(O)C(C)O3)c3ccc(c(Cl)c3)Oc3cc2cc(c3OC2OC(CO)C(O)C(O)C2OC2CC(C)(NCc3ccc(Sc4ccccc4)cc3)C(O)C(C)O2)Oc2ccc(cc2Cl)C1O (stereo not drawn)', 32);

* * *

tested on: Leuconostoc pseudomesenteroides; assay: MIC, agar dilution on brain-heart infusion agar; format: cell-based
Measured MIC by item
endpointLabel: MIC (µg/mL)

INSERT INTO assay_data (molecule, measurementtarget, endpointlabel, number) VALUES
  ('CNC(CC(C)C)C(=O)NC1C(=O)NC(CC(N)=O)C(=O)NC2C(=O)NC3C(=O)NC(C(=O)NC(C(=O)O)c4cc(O)cc(O)c4-c4cc3ccc4O)C(OC3CC(C)(N)C(O)C(C)O3)c3ccc(c(Cl)c3)Oc3cc2cc(c3OC2OC(CO)C(O)C(O)C2OC2CC(C)(NCc3ccc(-c4ccccc4)cc3)C(O)C(C)O2)Oc2ccc(cc2Cl)C1O (stereo not drawn) [Compound 2, p-phenylbenzyl.cndot.A82846B]', 'Leuconostoc pseudomesenteroides', 'MIC', 32),
  ('CNC(CC(C)C)C(=O)NC1C(=O)NC(CC(N)=O)C(=O)NC2C(=O)NC3C(=O)NC(C(=O)NC(C(=O)O)c4cc(O)cc(O)c4-c4cc3ccc4O)C(OC3CC(C)(N)C(O)C(C)O3)c3ccc(c(Cl)c3)Oc3cc2cc(c3OC2OC(CO)C(O)C(O)C2OC2CC(C)(NCc3ccc(OCc4ccccc4)cc3)C(O)C(C)O2)Oc2ccc(cc2Cl)C1O (stereo not drawn)', 'Leuconostoc pseudomesenteroides', 'MIC', 16),
  ('CNC(CC(C)C)C(=O)NC1C(=O)NC(CC(N)=O)C(=O)NC2C(=O)NC3C(=O)NC(C(=O)NC(C(=O)O)c4cc(O)cc(O)c4-c4cc3ccc4O)C(OC3CC(C)(N)C(O)C(C)O3)c3ccc(c(Cl)c3)Oc3cc2cc(c3OC2OC(CO)C(O)C(O)C2OC2CC(C)(NCc3ccc(OC4CCCCC4)cc3)C(O)C(C)O2)Oc2ccc(cc2Cl)C1O (stereo not drawn)', 'Leuconostoc pseudomesenteroides', 'MIC', 64);
